- Assay name: Lethal dose determined in mice after oral administration
- Format: toxicity, organism-based
- Condition description: mouse, in vivo
Measurement label: LD50 (mg/kg)
Express your answer in mg/kg, writing the number without its unit.

IN: Requested read-out: LD50. Entry: Cl.OC(CCn1ccnc1)c1ccc(CCc2ccccc2)cc1 (centres undefined)
OUT: 560

IN: What does the record list as LD50 for Cl.OC(Cn1ccnc1)c1ccc(CCc2ccccc2)cc1 (centres undefined) ?
OUT: 434

----------
Answer each item with its documented log10 LD50.
- Assay name: Lethal dose determined in mice after oral administration
- Assay type: toxicity, organism-based
- Condition description: mouse, in vivo
Plainly stated, the numbers are log10 of LD50 given in mg/kg.

IN: May I ask what log10 LD50 has been recorded for CC(C)(C(O)c1ccc(-c2ccccc2)cc1)n1ccnc1.Cl (configuration not stated) ?
OUT: 3.38

IN: Looking for the measured log10 LD50 of O=C(CCn1ccnc1)c1ccc(-c2ccccc2)cc1 , can you help?
OUT: 3.06

IN: I have this compound here, CC(C)(C(=O)c1ccc(-c2ccccc2)cc1)n1ccnc1 , and I need its recorded log10 LD50.
OUT: 3.27

IN: I'd like to know its log10 LD50. The compound in question is Cl.OC(Cn1ccnc1)c1ccccc1-c1ccccc1 (configuration not stated)
OUT: 2.48

IN: Dear colleague, I am looking for the recorded log10 LD50 of the following compound: O=C(Cn1ccnc1)c1ccccc1-c1ccccc1
OUT: 2.56

IN: Please give the measured log10 LD50 for this compound: O=C(Cn1ccnc1)c1cccc(-c2ccccc2)c1
OUT: 2.88

IN: May I ask what log10 LD50 has been recorded for CC(C(O)c1ccc(-c2ccccc2)cc1)n1ccnc1.Cl (configuration not stated) ?
OUT: 2.76

IN: // log10 LD50 lookup, key: O=C(Cn1ccnc1)c1ccc(-c2ccccc2)cc1
OUT: 3.38

IN: Please look up its log10 LD50: O=C(Cn1ccnc1)c1ccc(C2CCCCC2)cc1
OUT: 3.32

IN: Name the recorded log10 LD50 for O=C(CCn1ccnc1)c1ccc(CCc2ccccc2)cc1 .
OUT: 3.32

IN: May I ask what log10 LD50 has been recorded for CCC1(c2ccccc2)C(=O)NC(=O)NC1=O.Cl [PHENOBARBITAL HYDROCHLORIDE] ?
OUT: 2.37

IN: What value of measured log10 LD50 is listed for Cl.OC(Cn1ccnc1)c1ccc(C2CCCCC2)cc1 (configuration not stated) ?
OUT: 3.43

----------
I'd appreciate it if you could supply ED50 values for the items below.
- Test system: Mus musculus
- Assay name: Anticonvulsant activity was evaluated by the maximal electroshock test in mice, administered orally
- Type: functional
- Condition description: po

IN: Record request: ED50 value, item O=C(Cn1ccnc1)c1ccc(O)c(O)c1
OUT: > 200 mg/kg

IN: Param item = CC(C(=O)c1ccc(-c2ccccc2)cc1)n1ccnc1 (stereo unspecified) ; retrieve measured ED50.
OUT: > 18 mg/kg

IN: If you can, please state the reported ED50 value of CC(C(=O)c1ccc(CCc2ccccc2)cc1)n1ccnc1 (stereo unspecified) .
OUT: > 23 mg/kg

IN: GET /values?readout=ED50&item= CC(C)(C(O)c1ccc(CCc2ccccc2)cc1)n1ccnc1.Cl (stereo unspecified)
OUT: > 48 mg/kg

IN: Requested field: ED50. Item: Cl.OC(Cn1ccnc1)c1cccc(-c2ccccc2)c1 (stereo unspecified)
OUT: 25 mg/kg

IN: Field request: ED50 | item: Cl.OC(Cn1ccnc1)c1ccc(C2CCCCC2)cc1 (stereo unspecified)
OUT: 59.6 mg/kg

IN: Would you mind telling me what ED50 value was observed for Cl.OC(CCn1ccnc1)c1ccc(CCc2ccccc2)cc1 (stereo unspecified) ?
OUT: 24.7 mg/kg

IN: Param item = CC(C)(C(=O)c1ccc(CCc2ccccc2)cc1)n1ccnc1 ; retrieve measured ED50.
OUT: > 36 mg/kg

IN: // lookup ED50 for CCC(C)c1ccc(C(=O)Cn2ccnc2)cc1 (stereo unspecified)
OUT: > 23 mg/kg

IN: Look up ED50 for this compound: O=C(Cn1ccnc1)c1ccc([N+](=O)[O-])cc1
OUT: > 72 mg/kg

IN: Could you share which ED50 value was measured for CC(Cn1ccnc1)C(=O)c1ccc(-c2ccccc2)cc1 (stereo unspecified) ?
OUT: > 26 mg/kg

IN: Please look up its ED50: O=C(Cn1ccnc1)c1ccc(-c2ccccc2)cc1
OUT: 78.3 mg/kg

IN: Quick check: ED50 of O=C(Cn1ccnc1)c1ccc(O)cc1 ?
OUT: > 150 mg/kg

IN: Data request, read-out ED50, for CC(C)(C)c1ccc(C(O)Cn2ccnc2)cc1.Cl (stereo unspecified)
OUT: > 42 mg/kg

IN: Record request: ED50 value, item Cl.Nc1ccc(C(O)Cn2ccnc2)cc1 (stereo unspecified)
OUT: > 175 mg/kg

IN: Please report the recorded ED50 for O=C(Cn1ccnc1)c1ccc(Oc2ccccc2)cc1 .
OUT: > 20 mg/kg

IN: Field request: ED50 | item: CC(C)(C)c1ccc(C(=O)Cn2ccnc2)cc1
OUT: > 20 mg/kg

IN: Looking for the measured ED50 of OC(Cn1ccnc1)c1ccc(Cl)cc1 (stereo unspecified) , can you help?
OUT: > 54 mg/kg

IN: Which ED50 value is on record for Cl.OC(Cn1ccnc1)c1ccc(Oc2ccccc2)cc1 (stereo unspecified) ?
OUT: > 48 mg/kg

IN: Please report the recorded ED50 for Nc1ccc(C(=O)Cn2ccnc2)cc1 .
OUT: > 72 mg/kg

IN: So what does the record say about ED50 for Cl.OC(Cn1ccnc1)c1ccc(CCc2ccccc2)cc1 (stereo unspecified) ?
OUT: 10.2 mg/kg

IN: ED50 for O=C(Cn1ccnc1)c1ccccc1-c1ccccc1 ?
OUT: 17.1 mg/kg

IN: Item under review: CC(C(O)c1ccc(-c2ccccc2)cc1)n1ccnc1.Cl (stereo unspecified) . Reported ED50?
OUT: 24.7 mg/kg

IN: Name the recorded ED50 for CC(C)(C(O)c1ccc(-c2ccccc2)cc1)n1ccnc1.Cl (stereo unspecified) .
OUT: 25.1 mg/kg

IN: So what does the record say about ED50 for CCC(C)c1ccc(C(O)Cn2ccnc2)cc1.Cl (stereo unspecified) ?
OUT: 31.2 mg/kg

IN: Request the reported ED50 associated with Cl.O=[N+]([O-])c1ccc(C(O)Cn2ccnc2)cc1 (stereo unspecified)
OUT: 98 mg/kg
